Source of measurements: patent US8802678B2

I'd be grateful if you could share measured melting point for these entries.
// units = °C; emit number, no label

// query Complete the entry with melting point for CC(=O)CCCN1CCC(CCN2CCN(c3cccc(C(F)(F)F)c3)CC2)CC1.Cl.Cl
// result 315

// query Note down melting point recorded for COCC(=O)N[C@H]1CC[C@H](CCN2CCN(c3cc(F)cc(Cl)c3)CC2)CC1
// result 132

// query Kindly indicate its recorded melting point. Item: N#CCC(=O)N[C@H]1CC[C@H](CCN2CC=C(c3ccc(Cl)cc3)CC2)CC1
// result 220

// query Tell me melting point reported for CC(C)c1cccc(N2CCN(CC[C@H]3CC[C@H](NC(=O)CC#N)CC3)CC2)c1
// result 153

// query Quick one: give measured melting point for COCC(=O)N[C@H]1CC[C@H](CCN2CCN(c3cc(C(C)(C)C)nc(C(C)(C)C)n3)CC2)CC1
// result 130

// query Indicate its recorded melting point; the compound in question is Cc1cc(N2CCN(CC[C@H]3CC[C@H](NC(=O)CC#N)CC3)CC2)ccc1F
// result 192

// query Answer with the recorded melting point for the compound listed here: N#CCCCC(=O)N[C@H]1CC[C@H](CCN2CCN(c3ccc(F)cc3)CC2)CC1
// result 154

// query Give a short answer stating reported melting point for CCc1ccc(N2CCN(CC[C@H]3CC[C@H](NC(=O)CC#N)CC3)CC2)cc1 .
// result 210

// query # return recorded melting point for entry N#CCC(=O)N[C@H]1CC[C@H](CCN2CCN(c3ccc(Cl)c(Cl)c3F)CC2)CC1
// result 237

// query Assign melting point to the following record: CC(C)(C)OC(=O)CN1CCC(CCN2CCN(c3cccc(C(F)(F)F)c3)CC2)CC1.Cl.Cl
// result 245

// query Name the recorded melting point of the item O=C(CC(F)(F)F)N[C@H]1CC[C@H](CCN2CCN(c3ccc(F)cc3)CC2)CC1 in your answer.
// result 200

// query Tell me its melting point given O=C(N[C@H]1CC[C@H](CCN2CCN(c3ccc(F)c(F)c3F)CC2)CC1)C1=CCCC1 as the entry.
// result 213

// query For the compound CC(=O)CN1CCC(CCN2CCN(c3cc(F)c(F)cc3F)CC2)CC1 , give its measured melting point value.
// result 68

// query Identify measured melting point associated with Cc1cc(C)cc(N2CCN(CC[C@H]3CC[C@@H](NC(=O)CC#N)CC3)CC2)c1
// result 119

// query Please list melting point recorded for the compound CCOc1ccccc1N1CCN(CCC2CCN(CC(C)=O)CC2)CC1.Cl.Cl
// result 271

// query State its melting point: N#CCC(=O)N[C@H]1CC[C@H](CCN2CC=C(c3cc(C(F)(F)F)cc(C(F)(F)F)c3)CC2)CC1
// result 174

// query Please indicate melting point recorded for NC(=O)CCC(=O)N[C@H]1CC[C@H](CCN2CCN(c3cccc(F)c3)CC2)CC1
// result 255
